System: pigweed
Assay: Test B pre/postemergence pigweed
Assay type: in vivo, Amaranthus retroflexus
Settings: Postemergence, Rate 250 g/ha; scale 0 to 10
readout kind: Redroot pigweed plant response rating
Please reply with the value in numeric form only.

Take a look at these entries with their results.
// Redroot pigweed plant response rating lookup, key: CCC=CCn1c(=O)on(C(=O)N(c2ccccc2)C(C)C)c1=O [Compound 454] 2

Cool, now CCOP(=O)(OCC)C(C)n1c(=O)on(C(=O)N(c2ccccc2)C(C)C)c1=O (centres unmarked) [Compound 448] 0

Cool, now C=C[Si](C)(C)Cn1c(=O)on(C(=O)N(c2ccc(Cl)cc2)C(C)C)c1=O [Compound 425] 2

Cool, now CC(C)N(C(=O)n1oc(=O)n(COCC[Si](C)(C)C)c1=O)c1ccc(Cl)cc1 [Compound 467] 3

With those in mind, consider the next compound.
// Redroot pigweed plant response rating lookup, key: CCN(C(=O)n1oc(=O)n(C2CCCCCC2)c1=O)C1CCCCC1 [Compound 429] 0
